Value source: PubChem BioAssay

Method description: small-molecule microarray binders of probe aXIP, primary screen, biochemical, NeuroSMM set, 635/667 nm fluorescence (AID 1119);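 note: probe is the protein aXip251-270 applied at 1 µg/mL to compound-printed slides; binding of probe to printed compounds measured as 667 nm fluorescence plus signal to noise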
Experimental setup: higher = more signal, called active from +8 up or from −8 down
Measured property: composite Z-score

Molecule	Measured property	Data value
C=CC[C@H](O)c1ccc(O)c2ccccc12	composite Z-score	0.579
COCCOC(=O)N1C(=O)[C@@]2(c3cc(C#CCC(C(=O)OC)C(=O)OC)ccc31)[C@H](C(=O)N1CCc3cc(OC)c(OC)cc3C1)[C@H]1C(=O)O[C@H](c3ccccc3)[C@H](c3ccccc3)N1[C@@H]2c1ccccc1OCCO	composite Z-score	-0.331
C[C@H]1C2[C@H](Cc3ccccc3)NC(=O)[C@]23C(=O)N[C@@H](Cc2ccccc2)C(=O)N2CCC[C@H]2C(=O)NC/C=C/CC/C=C/C3[C@@H]2O[C@]12C (stereo partly drawn)	composite Z-score	-0.571
C=CC[C@]1(C(N)=O)N=C(c2ccc(OCCCO)cc2)O[C@H]1c1ccccc1N=[N+]=[N-]	composite Z-score	1.13
COC(=O)[C@@]1(Cc2ccc(F)cc2)[C@H]2c3cc(C(=O)N4CCCC4)n(Cc4ccc(OC(F)(F)F)cc4)c3C[C@H]2CN1C(=O)c1ccccc1	composite Z-score	-0.328
O=C(NC1CC1)[C@@H]1c2ccccc2C(=O)N(C2CCCCC2)[C@H]1c1ccc(CO)cc1	composite Z-score	0.635
O=C1O[C@H](c2ccccc2)[C@H](c2ccccc2)N2[C@H]1[C@@H](C(=O)Nc1nc3ccccc3s1)[C@]1(C(=O)Nc3ccccc31)[C@H]2c1ccccc1OCCO	composite Z-score	0.417
CC(C)C[C@H]1NC(=O)CNC(=O)[C@@]23C(=O)N[C@@H](Cc4ccccc4)C2[C@H](C)[C@@]2(C)O[C@H]2C3/C=C/C/C=C\CNC1=O (stereo partly drawn)	composite Z-score	-0.0443
COc1ccc(C(=O)Nc2ccc(CN3C(=O)[C@]4(O[C@H](CC(=O)N(CCO)Cc5ccccc5)[C@@H]([Si](C)(C)c5ccc(OC)cc5)[C@@H]4C)c4ccccc43)cc2)cc1	composite Z-score	-0.21
[N-]=[N+]=NCc1ccccc1C[C@@]1(C(N)=O)N=C(c2ccc(OCCCO)cc2)O[C@@H]1c1ccccc1N=[N+]=[N-]	composite Z-score	-0.254
CC1(C)OB(/C=C\CC(OC(=O)c2ccncc2)c2ccccc2)OC1(C)C (stereo not drawn)	composite Z-score	0.142
C=CCOC(=O)[C@H]1[C@@H]2C(=O)O[C@@H](c3ccccc3)[C@@H](c3ccccc3)N2[C@@H](c2ccc(OCCOC(=O)[C@H]3C[C@H]4C(=O)NCC(=O)N4[C@H]3c3cccc(OCCO)c3)cc2)[C@]12C(=O)Nc1ccc(I)cc12	composite Z-score	0.642
Cc1ccc(S[C@]2(C(=O)NCc3ccccc3)CC(=O)N(Cc3ccccc3Cl)[C@@H]2c2ccc(CO)cc2)cc1	composite Z-score	-0.608

###

System tested: Follistatin (Homo sapiens) (UniProt P19883)
Sequence (P19883 whole entry, looked up): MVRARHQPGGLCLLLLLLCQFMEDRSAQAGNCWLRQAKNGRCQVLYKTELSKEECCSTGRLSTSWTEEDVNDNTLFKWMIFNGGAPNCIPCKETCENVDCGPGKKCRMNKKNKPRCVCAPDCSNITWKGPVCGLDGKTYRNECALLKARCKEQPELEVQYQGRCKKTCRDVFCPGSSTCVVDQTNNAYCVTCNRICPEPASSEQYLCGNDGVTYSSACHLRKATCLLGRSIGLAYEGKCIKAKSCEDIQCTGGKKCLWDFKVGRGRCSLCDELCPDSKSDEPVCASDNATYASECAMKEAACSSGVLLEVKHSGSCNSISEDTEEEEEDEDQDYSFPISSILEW
Method description: follistatin binders on small-molecule microarrays, primary screen, biochemical, small-molecule microarray, 635/667 nm fluorescence (AID 1132)
Experimental setup: FST binding, 635 nm fluorescence, higher = more signal
We begin with a simple list: items and their reported composite z-score.
Measured property: composite z-score

Compound smiles	Measured property	Data value
C=C[C@@H](CO)NS(=O)(=O)c1ccc(Br)cc1	composite z-score	0.0216
C=CCNC(=O)[C@H]1[C@@H]2C(=O)O[C@@H](c3ccccc3)[C@@H](c3ccccc3)N2[C@@H](c2ccc(O)cc2)[C@]12C(=O)N(C(=O)OCCOC)c1ccc(C#Cc3ccc(OC)cc3)cc12	composite z-score	0.751
COC(=O)[C@H]1N=C(c2ccc(OCCCO)cc2)O[C@H]1c1ccccc1N=[N+]=[N-]	composite z-score	0.562
COC(=O)c1c2oc(c1C(=O)OC)C(=O)N[C@H](Cc1ccccc1)Cn1cc(nn1)C1(CCCCC1)NC(=O)N[C@H](CO)CC2	composite z-score	-0.328

###

Here the recorded z-score is given for each entry.
Method description: E. coli acrAB mutant growth effects, primary screen, E. coli filamentation inducers, strain DRC39, OD650, 24 h (AID 1178);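 note: growth measured as culture turbidity by optical density at 650 nm; test concentration not given here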
Experimental setup: higher = more signal, called active from +8 up or from −8 down

Compound	z-score
COc1cc(CO)cc(I)c1O[C@H]1C=C(C(=O)NCCO)C[C@@H](N(CCN2CCOCC2)C(=O)C2CCCO2)[C@@H]1O (some centres undefined)	2.09
Cc1ccc(S(=O)(=O)N2[C@@H](c3ccccc3)C(C(=O)O)=C[C@H]2C(C)(C)C)cc1	-0.773
C=CCOC(=O)[C@H]1[C@@H]2C(=O)O[C@@H](c3ccccc3)[C@@H](c3ccccc3)N2[C@@H](c2ccc(OCCOC(=O)[C@@H]3C[C@@H]4C(=O)N[C@@H](Cc5ccccc5)C(=O)N4[C@@H]3c3ccc(O)cc3)cc2)[C@]12C(=O)Nc1ccc(I)cc12	-0.588
CC1C2C(CCCO)=CC(C3C(=O)N(C)C(=O)C23)N1Cc1cccc(OC(F)(F)F)c1 (centres undefined)	0.224

###

System tested: Follistatin (Homo sapiens)
Method description: follistatin binders on small-molecule microarrays, primary screen, biochemical, small-molecule microarray, 635/667 nm fluorescence (AID 1132)
Experimental setup: FST binding, 635 nm fluorescence, higher = more signal
Each item that follows carries a reported composite z-score.

Compound smiles	composite z-score
[N-]=[N+]=NCc1ccccc1C[C@@]1(C(=O)NCCN2CCOCC2)N=C(c2ccc(OCCCO)cc2)O[C@@H]1c1ccccc1	1.23
COc1ccc([Si](C)(C)[C@H]2[C@H](CCO)O[C@@]3(C(=O)N(Cc4ccccc4)c4ccc(NC(=O)[C@H](C)O)cc43)[C@@H]2C)cc1	0.578
COc1ccc([Si](C)(C)[C@@H]2[C@@H](CC(=O)N3CCC[C@H]3CO)O[C@]3(C(=O)N(Cc4cccc(N5C(=O)c6cccc7cccc5c67)c4)c4ccccc43)[C@H]2C)cc1	1.16
COc1cc2c(cc1OC)CN(C(=O)[C@@H]1[C@H]3C(=O)O[C@H](c4ccccc4)[C@H](c4ccccc4)N3[C@H](c3ccc(O)cc3)[C@@]13C(=O)Nc1ccc(C#CC4=CCCCC4)cc13)CC2	1.08

###

Method description: small-molecule microarray binders of probe aEGFR, primary screen, biochemical, biotinylated probe, 635/667 nm fluorescence (AID 1097);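 note: probe is a biotinylated anti-EGFR antibody binding compounds printed on slides; score combines fluorescence near 667 nm and signal to noise of each spot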
Experimental setup: higher = more signal
Label rule, in plain words: composite z-score of -0.07 and up is class 1, under -0.07 is class 0.

Compound	Class name
Cc1c(NC(=O)/C(C#N)=C/C=C/c2ccc([N+](=O)[O-])cc2)c(=O)n(-c2ccccc2)n1C	class 1
Cc1ccc(S[C@]2(C(=O)NCCN3CCOCC3)CC(=O)N(C(C)C)[C@@H]2c2ccc(CO)cc2I)cc1	class 1
CN1C2C=C(c3ccc(CO)cc3)C(C3C(=O)N(C(N)=O)C(=O)C32)C1C1CC1 (configuration not stated)	class 0
C=CC[C@]1(C(=O)NCC(O)CO)N=C(c2ccc(OCCCO)cc2)O[C@H]1c1ccccc1CN=[N+]=[N-] (some centres not stated)	class 0
CCOC(=O)C[C@H]1[C@H](OC(=O)Cc2ccc3c(c2)OCO3)[C@@H](NC(=O)CC(C)C)c2cc(OCCCO)ccc2N1C(=O)c1ccc2ccccc2n1	class 0
CC(C)c1ccc(NN2C(C(O)c3ccccc3)C=CC3C(=O)N(c4ccccc4)C(=O)C32)cc1 (configuration not stated)	class 1
COCCOC(=O)N1C(=O)[C@@]2(c3cc(C#CCC(C(=O)OC)C(=O)OC)ccc31)[C@H](C(N)=O)[C@H]1C(=O)O[C@H](c3ccccc3)[C@H](c3ccccc3)N1[C@@H]2c1ccccc1OCCO	class 1

###

System tested: Carbonic anhydrase 2 (Homo sapiens) (UniProt P00918)
Method description: CAII small-molecule binders, profiling panel, biochemical, small-molecule microarray, Alexa647-labelled CAII (AID 1122)
Experimental setup: CAII-A647 binding fluorescence, higher = more signal
Everything with composite z-score lower than 0.6 is False; everything else, including exactly 0.6, is True.

Compound	Class name
CN(C)CCCC[C@@H]1NC(=O)[C@H]2C[C@@H](C(=O)NCCCCCCNC(=O)CS)[C@@H](c3cccc(OCCO)c3)N2C1=O	False
CCOC(=O)C[C@H]1[C@H](OC(=O)Cc2ccc3c(c2)OCO3)[C@@H](NC(=O)CC(C)C)c2cc(OCCCO)ccc2N1C(=O)c1ccc2ccccc2n1	False
O=C1O[C@H](c2ccccc2)[C@H](c2ccccc2)N2[C@H]1[C@@H](C(=O)O)[C@]1(C(=O)Nc3ccccc31)[C@H]2c1ccc(OCCO)cc1	True
COC(=O)C1=CC(CCCO)=CC(c2ccc(CN3CCCC3)cc2)N(C)C=C1C(=O)OC (stereo unspecified)	True
CC(C)(C)OC(=O)CC[C@@]1(C(N)=O)N=C(c2ccc(OCCCO)cc2)O[C@@H]1c1ccccc1CN=[N+]=[N-]	True
C=C(COC)/C(=C/C[C@@H](OC(=O)c1ccncc1)c1ccccc1OCCO)c1cnc2ccccc2c1	True
COC(=O)C[C@H]1O[C@]2(C(=O)N(C)c3ccccc32)[C@@H](C)[C@@H]1[Si](C)(C)c1ccccc1	False
CCOC(=O)C[C@H]1[C@H](OC(=O)c2ccc(-c3ccccc3)cc2)[C@@H](NC(=O)C2CCCCC2)c2cc(OCCCO)ccc2N1C(=O)Cc1ccc(OC)cc1	False
C[C@]1(C(=O)NC2CC2)c2ccccc2C(=O)N(Cc2cc(F)cc(C(F)(F)F)c2)[C@H]1c1ccc(CO)cc1	True
C[N+](C)(C)CCCC[C@@H]1NC(=O)[C@H]2C[C@@H](C(=O)O)[C@@H](c3ccc(O)cc3)N2C1=O	True
COCCOC(=O)N1C(=O)[C@@]2(c3cc(C#CCNC(N)=O)ccc31)[C@H](c1ccccc1OCCO)N1[C@H](c3ccccc3)[C@H](c3ccccc3)OC(=O)[C@H]1[C@@H]2C(=O)N1CCCCCCC1	False
CC(C)C[C@@H]1NC(=O)[C@H]2C[C@@H](C(=O)O)[C@@H](c3cccc(OCCO)c3)N2C1=O	False
Cc1ccc(N2C(=O)c3ccccc3[C@@H](C(=O)NCCN3CCOCC3)[C@@H]2c2ccc(CO)cc2)nc1	False
N#Cc1ccc(NN2C(C(O)c3ccc(B(O)O)cc3)C=CC3CN(c4ccccc4)C(=O)C32)cc1 (stereo unspecified)	True
C[C@]12C(=O)N(CCO)[C@@H]3C(=O)N(c4ccc(Cl)cc4)CC=CC31O[C@@H]1/C=C\CCCOC(=O)C12 (stereo partly specified)	True
CC(C)c1ccc(NN2C(C(O)C3CCCCC3)C=CC3C(=O)N(c4ccccc4)C(=O)C32)cc1 (stereo unspecified)	True
O=C1O[C@H](c2ccccc2)[C@H](c2ccccc2)N2[C@H]1[C@@H](C(=O)N1CCCCCCC1)[C@]1(C(=O)Nc3ccc(C#CCCO)cc31)[C@H]2c1ccc(O)cc1	True
CO[C@H]1O[C@H](CO)[C@@H](OC(=O)Nc2cccc(F)c2)[C@H](OC(=O)Nc2ccc3c(c2)OCO3)[C@@H]1OC(=O)Nc1ccc2c(c1)OCO2	True
C=CCOC(=O)[C@@H]1[C@H]2C(=O)O[C@H](c3ccccc3)[C@H](c3ccccc3)N2[C@H](c2ccc(OCCOC(=O)[C@@H]3C[C@@H]4C(=O)N[C@@H](CC(C)C)C(=O)N4[C@@H]3c3ccc(O)cc3)cc2)[C@@]12C(=O)Nc1ccc(I)cc12	False
COCCOC(=O)N1C(=O)[C@@]2(c3cc(C#CCCO)ccc31)[C@H](C(=O)N1CCN(c3ncccn3)CC1)[C@H]1C(=O)O[C@H](c3ccccc3)[C@H](c3ccccc3)N1[C@@H]2c1ccc(OCCO)cc1	True
CN(C)CCCCCCNC(=O)[C@@H]1C[C@@H]2C(=O)N[C@@H](CCCC[N+](C)(C)C)C(=O)N2[C@@H]1c1cccc(OCCO)c1	False
O=C(NCC(F)(F)F)[C@@H]1c2ccccc2C(=O)N(Cc2cc(C(F)(F)F)cc(C(F)(F)F)c2)[C@H]1c1ccc(CO)cc1	False
